Here, each record is paired with measured pest or weed control at 250 g/ha data.
# Tested on: Alopecurus myosuroides (ALOMY)
# Test description: Test 1 glasshouse assay, pre-emergence herbicidal activity
# Format: in vivo
# Measurement parameters: 312 h, visual evaluation after 13 days, read-out: Percentage phytotoxicity ALOMY
Include the unit right after the number.

Some solved cases for reference:
1. C#CCC1CC(=O)C(c2cc(-c3ncc(Cl)cc3F)ccc2C)C1=O (centres unmarked)	60%
2. C#CCC1CC(=O)C(c2c(F)cc(-c3ccc(Cl)cn3)cc2Cl)C1=O (centres unmarked)	90%

**Query** State pest or weed control at 250 g/ha (Alopecurus myosuroides (ALOMY)) of C#CCC1CC(=O)C(c2c(Cl)cc(-c3ccc(Cl)cc3)cc2OC)C1=O (centres unmarked) .
**Result** 100%

**Query** State pest or weed control at 250 g/ha (Alopecurus myosuroides (ALOMY)) of C#CCC1CC(=O)C(c2cc(-c3ccc(Cl)cn3)ccc2C)C1=O (centres unmarked) .
**Result** 70%

**Query** State pest or weed control at 250 g/ha (Alopecurus myosuroides (ALOMY)) of C#CCC1CC(=O)C(c2c(F)cc(-c3ccc(Cl)cc3)cc2OC)C1=O (centres unmarked) .
**Result** 100%

**Query** State pest or weed control at 250 g/ha (Alopecurus myosuroides (ALOMY)) of C#CCC1CC(OC(C)=O)=C(c2c(C)cc(-c3ccc(F)cc3)cc2C)C1=O (centres unmarked) .
**Result** 100%

**Query** State pest or weed control at 250 g/ha (Alopecurus myosuroides (ALOMY)) of C#CCC1CC(=O)C(c2c(F)cc(-c3ccc(F)cc3)cc2Cl)C1=O (centres unmarked) .
**Result** 90%

**Query** State pest or weed control at 250 g/ha (Alopecurus myosuroides (ALOMY)) of C#CCC1CC(=O)C(c2c(C)cc(-n3cc(Cl)cn3)cc2C)C1=O (centres unmarked) .
**Result** 70%

* * *

# Test system: Panicum miliaceum (PANMI)
# Test description: Test 2 glasshouse assay (IF50 formulation, X-77), pre-emergence herbicidal activity
# Type: in vivo
# Measurement parameters: 480 h, 250 g/ha, 20DAA, read-out: Percentage phytotoxicity PANMI
Here, each record is paired with measured pest or weed control at 250 g/ha data.
Respond with the bare value in %.

Some solved cases for reference:
1) C#CCC1CC(=O)C(c2c(C)cc(C)cc2C)C1=O (stereo not shown)	100
2) C#CCC1CC(=O)C(c2c(C)cc(-c3ncc(Cl)cc3F)cc2C)C1=O (stereo not shown)	80
3) C#CCC1CC(=O)C(c2c(F)cc(-c3ccc(F)c(F)c3)cc2OC)C1=O (stereo not shown)	80
4) C#CCC1CC(=O)C(c2c(F)cc(-c3ccc(Cl)cn3)cc2Cl)C1=O (stereo not shown)	90
5) C#CCC1CC(=O)C(c2c(CC)cc(C)cc2CC)C1=O (stereo not shown)	90
6) C#CCC1CC(=O)C(c2c(F)cc(-c3ccc(Cl)cc3)cc2Cl)C1=O (stereo not shown)	0

**Query** Quote pest or weed control at 250 g/ha reported for C#CCC1CC(=O)C(c2c(C)cc(-c3ccc(Cl)cn3)cc2C)C1=O (stereo not shown) please.
**Result** 100

* * *

# Test system: Panicum miliaceum (PANMI)
# Test description: Test 2 glasshouse assay (IF50 formulation, X-77), post-emergence herbicidal activity
# Format: in vivo
# Measurement parameters: 360 h, application rate 30 g/ha, 15 DAA, visual score, read-out: Post-emergence herbicidal activity (percentage phytotoxicity) PANMI
Test readout: pest or weed control at 30 g/ha (%)
Respond with the bare value in %.

Some solved cases for reference:
1. C#CCC1CC(=O)C(c2c(CC)cc(C)cc2CC)C1=O (stereo not drawn) [Compound A25]	100
2. C#CCC1CC(=O)C(c2c(Cl)cc(-c3ccc(Cl)cn3)cc2OC)C1=O (stereo not drawn) [Compound A10]	100

**Query** Quote pest or weed control at 30 g/ha reported for C#CCC1CC(=O)C(c2c(Cl)cc(-c3ccc(F)cc3)cc2OC)C1=O (stereo not drawn) [Compound A7] please.
**Result** 100

These data points were gathered from patent US10375956B2.
